- System: wild oat
- procedure_text: Test C postemergence
- Format: in vivo, Avena fatua
- assay_setup: 31 g ai/ha, postemergence; visual rating, scale 0 to 100 (0 no effect, 100 complete control), 13 to 15 days
measurement_kind: Oat, Wild plant response rating

>>> result("Clc1cnc(Oc2cccc(Cl)c2-n2cc(Cl)cn2)nc1")
25
>>> result("N#Cc1cnn(-c2c(Oc3ncc(F)cn3)cccc2C(F)F)c1")
0
>>> result("Clc1cnc(Oc2cccc(Br)c2-n2cc(Cl)cn2)nc1")
5
>>> result("O=Cc1cccc(Oc2ncc(I)cn2)c1-n1cc(Br)cn1")
0
>>> result("N#Cc1cnn(-c2c(C#N)cccc2Oc2ncc(Cl)cn2)c1")
15
>>> result("FC(F)c1cnn(-c2c(Cl)cccc2Oc2ncc(Cl)cn2)c1")
0
